Test system: TK-10 renal
METHOD: NCI-60 one-dose screen, 48 h (100 = growth as untreated, 0 = no growth, -100 = all killed)
CONDITION SUMMARY: 10 µM unless noted
About 83,000 compounds went through this panel and 20% of them were active in at least one assay; those are over-represented in the sample as a whole. Activity calls are given as the source filed them. Rule for the calls: active = growth percent below 10; inactive = the rest.
PARAMETER MEASURED: growth

Solved entries:
COMPOUND: C=CC1CN2CCC1CC2C(O)c1ccnc2ccccc12 (stereo not given)
PARAMETER MEASURED: growth
VALUE OBSERVED: 142% (inactive)

COMPOUND: CC1(C)C=Cc2c(ccc3c2[N+]([O-])=C2C3=C[C@@]34NC(=O)[C@]5(CCCN5C3=O)C[C@@H]4C2(C)C)O1
PARAMETER MEASURED: growth
VALUE OBSERVED: 83.1% (inactive)

COMPOUND: Cc1ccc(P(=O)(O)O)cc1
PARAMETER MEASURED: growth
VALUE OBSERVED: 102% (inactive)

COMPOUND: COc1ccc(N(CC(=O)NCCC[Te]c2ccccc2)C(=O)c2ccccc2)cc1
PARAMETER MEASURED: growth
VALUE OBSERVED: 97.7% (inactive)

I'd like to know its growth. The compound in question is `Nc1ccc2c(c1)Cc1cc(N)ccc1-2`
106% (inactive)

Okay, and CC1=CC(=O)CCC12CCOC2=O (stereo not given) ?
92% (inactive)

====

Test system: OVCAR-5 ovarian
METHOD: NCI-60 one-dose screen, 48 h (100 = growth as untreated, 0 = no growth, -100 = all killed)
CONDITION SUMMARY: 10 µM unless noted
About 83,000 compounds went through this panel and 20% of them were active in at least one assay; those are over-represented in the sample as a whole.
PARAMETER MEASURED: growth (%)
The reply should contain only the number, in %.

MOLECULE: Nc1nc(=S)nc(N)[nH]1
growth (%): 89.1
//
MOLECULE: CSc1cc(/C=C(\C)[C@@H]2C[C@@H]3O[C@]3(C)CCC[C@H](C)[C@H](O)[C@@H](C)C(=O)C(C)(C)[C@@H](O)CC(=O)O2)n(CCNC(=O)OC(C)(C)C)n1
growth (%): 59.8
//
MOLECULE: O=C(CCCN1CCC2(CC1)C(=O)NCN2c1ccccc1)c1ccc(F)cc1
growth (%): -54.6
//
MOLECULE: CC1=CC(=Nc2ccc(N(CCCl)CCCl)cc2)C=C(C)C1=O
growth (%): 35
//
MOLECULE: CC[C@H](C)[C@H](NC(=O)[C@H]1CCCCN1C)C(=O)N(C)[C@H](C[C@@H](OC(C)=O)c1nc(C(=O)NC23C4C5C2C2C3C4C52C(=O)OC)cs1)C(C)C (some centres undefined)
growth (%): 55.7
//
MOLECULE: C[C@]12CC[C@H](O)C[C@@H]1CC[C@@H]1[C@@H]2CC[C@]2(C)OC(=O)CC[C@@H]12
growth (%): 93.7
//
MOLECULE: CC1(C)S[C@H]2CC[C@H]3OC(=O)[C@@H]1N23
growth (%): 91.1
//
MOLECULE: CC[C@H](C)[C@H]1O[C@]2(C=C[C@@H]1C)C[C@@H]1C[C@@H](C/C=C(\C)[C@@H](O[C@H]3C[C@H](OC)[C@@H](O[C@H]4C[C@H](OC)[C@@H](NC)[C@H](C)O4)[C@H](C)O3)[C@@H](C)/C=C/C=C3\CO[C@@H]4[C@H](O)C(C)=C[C@@H](C(=O)O1)[C@]34O)O2
growth (%): -34.5
//
MOLECULE: CC12CCC3C4CCC(=O)C=C4CCC3C1CC1CC(=O)OC12 (centres undefined)
growth (%): 107
//
MOLECULE: CCC(=O)C(CC(C)[N+](C)(C)C)(c1ccccc1)c1ccccc1 (centres undefined)
growth (%): 96.8

What does the record list as growth for `COc1cc2c(cc1OC)-c1c3c(cc4c1[C@@H](C2)N(C)CC4)OCO3` ?
42.5

Item: `C[C@]12CCc3sc(Nc4ccc(O)cc4)nc3C1=CC[C@@H]1[C@@H]2CC[C@]2(C)C(=O)CC[C@@H]12`
117

Please answer likewise for CCCC(C)SP(=S)(SC(C)CCC)SC(C)CCC (centres undefined)
112

Try the molecule `O=c1c2ccccc2nc(-c2ccccc2Cl)n1-c1nnc(C(F)(F)F)s1`
78.2

Query `CCCCn1c(=O)c(C(=O)NCc2ccccc2Cl)c(O)c2ccccc21` next
109

Another molecule: `COC(=O)C1=CCCN(C)C1`
94.9

Again, but for NC1CN2CCC1CC2 (centres undefined)
95.5

Let us now turn to `CC[C@H](C)[C@H](NC(=O)[C@H]1CCCCN1C)C(=O)N(C)[C@H](C[C@@H](OC(C)=O)c1cccc(C(=O)N[C@@H](Cc2ccccc2)C[C@H](C)C(=O)OC)n1)C(C)C`
39

Follow-up entry: `COc1cc(-c2ccc(N)c(OC)c2)ccc1N`
94.4

// next record `Cc1cc2c(cc1-c1ccnc(/C=C/C(=O)O)c1)C(C)(C)CCC2(C)C`
100

Do the same for `C[C@]12CCc3nc(-c4ccc(O)c(O)c4)sc3C1=CC[C@@H]1[C@@H]2CC[C@]2(C)C(=O)CC[C@@H]12` please
112

Another: C[N+]1(C)CCCC1c1cccnc1 (centres undefined)
109

Further, for `C[C@]12CCc3sc(Nc4ccc(OC(F)(F)F)cc4)nc3C1=CC[C@@H]1[C@@H]2CC[C@]2(C)C(=O)CC[C@@H]12` ?
91.9

Now this one: `COC(=O)C1=CO[C@@H](C)[C@@H]2CN3CCc4c([nH]c5cc(OC)ccc45)[C@@H]3C[C@H]12`
95.6

Please give the result for `Cc1cc[c-]cc1.Fc1c[c-]c(-c2ccccn2)c(F)c1.[Pt+2].c1ccc([PH+](c2ccccc2)c2ccccn2)cc1` too.
63.9

Then what about the molecule `COc1cc(/C=C\[N+](=O)[O-])ccc1OCc1ccccc1` ?
98.5

Next molecule: `CC/C(=C(\c1ccc(OCCN2CCOCC2)cc1)c1ccc(OC(=O)Cc2ccccc2)cc1)c1ccc(Cl)cc1`
104

What about `O=NN1CCCCC1` ?
104

Follow-up item: `CC[C@H](CC[C@@H](C)[C@H]1CC[C@H]2[C@@H]3CC[C@H]4C[C@]5(CC[C@]4(C)[C@H]3CC[C@]12C)OO[C@](C)(C(F)(F)F)O5)C(C)C`
74.3

Next molecule: ClC1OC(Cl)(Cl)C(Cl)(Cl)OC1(Cl)Cl (centres undefined)
93.4

What would you report for `C[Se]/C=C1/C(=O)N(c2c(Cl)cccc2Cl)c2ccccc21` ?
28.7

Please give the result for `CO[C@H]1[C@H](O[C@@H]2C[C@@H]3C/C=C/C(=O)O[C@@H](CO)C[C@H](O)[C@@H]4C[C@H](C)[C@H](C/C=C\C=C\[C@H](C)C[C@H](C2)O3)O4)O[C@@H](C)[C@H](O)[C@H]1O` too.
71.2

Also `CC1(C)CN=C(NN=C(/C=C/c2ccc(C(F)(F)F)cc2)/C=C/c2ccc(C(F)(F)F)cc2)NC1` , if possible.
-87.5

Queued: `C/C(=C\c1ccn(-c2ccc(N)cc2F)n1)[C@@H]1C[C@@H]2O[C@]2(C)CCC[C@H](C)[C@H](O)[C@@H](C)C(=O)C(C)(C)[C@@H](O)CC(=O)O1`
23.5

====

System: LOX IMVI melanoma
METHOD: NCI-60 one-dose screen, 48 h (100 = growth as untreated, 0 = no growth, -100 = all killed)
CONDITION SUMMARY: 10 µM unless noted
The panel holds about 83,000 compounds, 20% with a hit somewhere; the sample as a whole holds those more often.
PARAMETER MEASURED: growth (%)
Kindly provide the numeric value in % only, without the unit symbol.

Look over these answered cases.
COMPOUND: CC12CCC3C(CCC4CC(O)CCC43C)C1CCC2=O (configuration not stated)
STUDY SYSTEM: LOX IMVI melanoma
growth / %: 92
//
COMPOUND: COc1ccc(N)cc1N
STUDY SYSTEM: LOX IMVI melanoma
growth / %: 100

Look up growth for this compound: `Nc1ccc(S(=O)(=O)F)cc1`
99.4

Try the compound `N#Cc1ccc(Cl)cc1`
106

Subsequent entry: `O=NN1CCCCC1`
100

Next compound up: `CCOP(=O)(NC)OCC`
102

Try this compound too: `C[C@]12CCc3sc(Nc4ccc(O)cc4)nc3C1=CC[C@@H]1[C@@H]2CC[C@]2(C)C(=O)CC[C@@H]12`
-8.01

Queued: `CCCCOC(N)=O`
104

Numbers sourced from PubChem BioAssay (NCI).
